Each recorded value in this set is attributed to a melting point compilation (Tetko et al.).

Record form. Attribute: melting point. Fill in for each entry.
Answers are plain numbers, in °C.

Look over these answered cases.
NC(=O)C[C@H](NC(=O)OCC1c2ccccc2-c2ccccc21)C(=O)O: 180
Cc1ccc(OCC(=O)O)cc1C: 163
O=CC(O)CO (stereo not drawn): 145
CCOC(=O)c1cc2cc3cc(C(=O)OCC)c(C)nc3cc2nc1C: 167

Each molecule below has a recorded value; state its melting point.
1. CCC(O)C(CC(C)N(C)C)(c1ccccc1)c1ccccc1 (stereo not drawn)
2. ICCCCCI
3. COc1cccc2sc(N)nc12
4. CCCCCCCCC(=O)OCCCCC

127
9
156
-27

----------
Given measured melting point, output 1.0 if it is greater than or equal to 100 °C and 0.0 if not.

Look over these answered cases.
CCCCCCCCCCCCCCCC(=O)OC(=O)CCCCCCCCCCCCCCC: 0.0
Clc1ccc2nc(Cl)sc2c1: 0.0
NCCCCCCNCCCCCCN: 0.0

Does the molecule CN1CCNCC1 have recorded melting point that is 100 °C or more?
0.0

// repeat for Cc1cccc2c(C=O)c[nH]c12 and report
1.0

Another molecule to check: CC(=O)Nc1ccc2c(OC(C)=O)c(-c3ccccc3)[nH]c2c1
1.0

----------
Please go through the items and note down their melting point.
Numbers only, in °C.

Reference set (8 entries):
CCC(=O)Nc1ccccc1: 106
Nc1nn2c(C(F)(F)F)cc(=O)[nH]c2c1/N=N/c1ccc(S(=O)(=O)O)cc1: 292
C[Si](C)(C)N(c1ccccc1)[Si](C)(C)C: 16.5
CC(C)(C#N)C#N: 31.5
CCOC(=O)C1=C(C)NC(=O)NC1c1ccco1 (centres undefined): 206
CC1(C)C(C(=O)OC(C#N)c2cccc(Oc3ccccc3)c2)C1C(Br)C(Br)(Br)Br (centres undefined): 143
O=Cc1c(F)ccc(F)c1Cl: 47
O=[N+]([O-])c1ccc(Cl)nc1: 107

Please go through the list and note melting point for each compound.
1. c1ccc(P(C2CCCCC2)C2CCCCC2)cc1
2. COC(=O)C1=C(N)Oc2cc(C)n(CCc3ccccc3)c(=O)c2C1c1cccc([N+](=O)[O-])c1 (centres undefined)

59.5
216

Quick request: melting point for each listed item, please.
1. CC12CCC(CC1)C2(C)C
2. CC(=O)Nc1cccc(C=CC(=O)c2ccccc2)c1
3. Cc1cc(N)on1
4. CSC(SC)=C(C#N)C(=O)c1cccc(C(F)(F)F)c1

158
104
83
60

Provide melting point values for the following items, in order.
1. ClC(Cl)=C(Cl)C(Cl)=C(Cl)Cl
2. CCc1ccc(C(=O)NN(C(=O)c2cc(C)cc(C)c2)C(C)(C)C)cc1
3. COc1ccc2ncccc2c1
4. CC(=O)OC(/C=C/c1ccccc1)=NNC(N)=O
5. COc1ccc(C(=O)CC(=O)c2ccc(C(C)(C)C)cc2)cc1
6. Cc1cc2nc3[nH]c(=O)[nH]c(=O)c3nc2cc1C
7. OCCC1CCCCN1 (centres undefined)
8. O=C(O)C1CC1(F)F (centres undefined)

1. -21
2. 191
3. 26.5
4. 174
5. 83.5
6. 300
7. 69
8. 58

For every listed record, write down its melting point.
1. O=C(c1ccc2ccccc2c1)c1noc(-c2cccc3ccccc23)c1S(=O)(=O)c1ccccc1
2. N#Cc1c(-c2ccc(Br)cc2)cc2c(C#N)c(=N)n(C(=O)c3ccccc3)n2c1N
3. Clc1ncccc1I
4. Cc1cccc2c1ccc1ccccc12
5. Cc1cc(Sc2cc(C)c(O)c(C(C)(C)C)c2)cc(C(C)(C)C)c1O
6. CC(C)(C)C(=O)CCl

1: 115; 2: 190; 3: 95; 4: 123; 5: 126; 6: -1
